biological target: HLA-A*26:02; experiment: IEDB peptide-MHC binding, purified MHC/competitive/fluorescence; filed as Kd, often an IC50 or EC50 that approximates it; bounds were set here for any values at or beyond the usual limits of such assays; conditions: source organism: Yersinia pestis Nepal516
readout.kind: Kd

[in] # value lookup — system HLA-A*26:02, readout Kd, item QWSPGPGRL
[out] ≥ 20 µM

----------
molecular target: HLA-B*58:01; assay: IEDB peptide-MHC binding, purified MHC/direct/fluorescence; filed as Kd, often an IC50 or EC50 that approximates it; bounds were set here for any values at or beyond the usual limits of such assays; conditions: source organism: Francisella tularensis subsp. holarctica LVS
pKd: −log10 of the molar value.
readout.kind: pKd

[in] Kindly state the measured pKd obtained for REMGIVDLL with HLA-B*58:01.
[out] ≤ 4.70

# credit: the Immune Epitope Database (IEDB)
